Provenance of the data: ChEMBL document CHEMBL1144484

protocol notes: Cytotoxicity against mouse peritoneal macrophages assessed as LDH release at 50 uM after 48 hrs
Assay type: cell-based
protocol conditions: peritoneal macrophage cell
quantity kind: Activity (%)
Give bare numbers, in %.

# annotated cases, reported Activity shown
molecule	quantity kind	value unit	measurement
C=C(C#N)C(O)c1ccc2ccccc2c1 (stereo not drawn)	Activity	%	26.6
C=C(C(=O)OC)C(O)c1ccc(C)cc1 (stereo not drawn)	Activity	%	0
C=C(C#N)C(O)c1ccccc1 (stereo not drawn)	Activity	%	0
C=C(C#N)C(O)c1ccc(C(F)(F)F)cc1 (stereo not drawn)	Activity	%	36.3
C=C(C#N)C(O)c1ccc([N+](=O)[O-])cc1 (stereo not drawn)	Activity	%	41.7
C=C(C#N)C(O)c1ccc2c(c1)OCO2 (stereo not drawn)	Activity	%	0

Below are some molecules; for each one, tell me its Activity.
1. C=C(C#N)C(OC(C)=O)c1ccc([N+](=O)[O-])cc1 (stereo not drawn)
2. C=C(C#N)C(O)c1ccc(Br)cc1 (stereo not drawn)
3. C=C(C(=O)OC)C(O)c1ccc(C(F)(F)F)cc1 (stereo not drawn)
4. C=C(C(=O)OC)C(O)c1ccc([N+](=O)[O-])cc1 (stereo not drawn)
5. C=C(C#N)C(O)c1cc(OC)ccc1OC (stereo not drawn)
6. C=C(C#N)C(O)c1ccc(O)c(OC)c1 (stereo not drawn)
7. C=C(C#N)C(O)c1ccccc1OC (stereo not drawn)

Result:
1: 0; 2: 0; 3: 36.2; 4: 41.6; 5: 0; 6: 0; 7: 6.1
